Test system: PSMA-expressing LNCaP cancer xenografts
Settings: mouse, in vivo
parameter_measured: Tumor: Salivary ratio

# compound, parameter_measured, numeric_result
data = [
    ("O=C(O)C[C@H](NC(=O)N[C@@H](CCCCNC(=O)[C@H](Cc1c2ccccc2cc2ccccc12)NC(=O)[C@H]1CC[C@H](CNC(=O)CN2CCN(CC(=O)O)CCN(CC(=O)O)CCN(CC(=O)O)CC2)CC1)C(=O)O)C(=O)O [68Ga-HTK03161, metal not drawn]", "Tumor: Salivary ratio", 57.2),
    ("O=C(O)CN1CCN(CC(=O)O)CCN(CC(=O)NC[C@H]2CC[C@H](C(=O)N[C@@H](Cc3c4ccccc4cc4ccccc34)C(=O)NCCCC[C@H](NC(=O)N[C@@H](C[C@@H](F)C(=O)O)C(=O)O)C(=O)O)CC2)CCN(CC(=O)O)CC1 [68Ga-HTK04033, metal not drawn]", "Tumor: Salivary ratio", 138),
    ("O=C(O)CCC[C@H](NC(=O)N[C@@H](CCCCNC(=O)[C@H](Cc1ccc2ccccc2c1)NC(=O)[C@H]1CC[C@H](CNC(=O)CN2CCN(CC(=O)O)CCN(CC(=O)O)CCN(CC(=O)O)CC2)CC1)C(=O)O)C(=O)O [68Ga-HTK03169, metal not drawn]", "Tumor: Salivary ratio", 23.2),
    ("O=C(O)CCC[C@H](NC(=O)N[C@@H](CCCCNC(=O)[C@H](Cc1c2ccccc2cc2ccccc12)NC(=O)Cc1cccc(CNC(=O)CN2CCN(CC(=O)O)CCN(CC(=O)O)CCN(CC(=O)O)CC2)c1)C(=O)O)C(=O)O [68Ga-HTK04037, metal not drawn]", "Tumor: Salivary ratio", 92.2),
]
